assay: growth inhibitors of tim10-1 mutant yeast, primary screen, luminescence, uHTS (AID 463190);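 note: mutant grown at 25 °C; 0% = DMSO wells with yeast and 100% = wells holding no yeast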; details: S. cerevisiae tim10-1 ts strain growth, BacTiter-Glo, 24 h; at 20 µM; hits give high values
The campaign covered roughly 330,000 compounds. About 7,300 (2.2%) were called active. Only a selection was taken, and actives are over-represented in it overall.

| compound | inhibition (%) |
| --- | --- |
| Cc1cc(C)cc(NC(=O)c2cccc(NC(=O)C3C4CC5OC(=O)C3C5C4)c2)c1 (stereo not given) | 4.38 |
| COc1ccc(NC(=O)c2ccccc2[N+](=O)[O-])cc1OC | 15.9 |
| CN(NC(=O)c1ccccc1F)c1nc(C(F)(F)F)nc2ccccc12 | 6.21 |
| O=[N+]([O-])c1ccc(S(=O)(=O)Nc2cccc(-c3ccc(N4CCCC4)nn3)c2)cc1 | 11.6 |
| CC(C)(C)c1ccc(CN2C(=O)c3ccccc3S2(=O)=O)cc1 | 15 |
| CCOC(=O)c1ccccc1CN1C(=O)c2ccccc2S1(=O)=O | 43.5 |
| COCCN(CCOC)c1nc(N)c2c(N)nc3c(c2c1C#N)CC(=O)N3Cc1ccc(Cl)cc1 | 28.9 |
| CCCCC(O)(CCCC)C(=O)NN(C(=O)CCl)c1ccccc1 | 49.5 |
| COC(=O)N(NC(=O)C(O)(C(C)C)C(C)C)c1ccccc1 | -7.63 |
| CN(Cc1cccs1)C(=O)CN1C(=O)c2ccccc2S1(=O)=O | -8.18 |

###

experiment: growth inhibitors of tim10-1 mutant yeast, primary screen, luminescence, uHTS (AID 463190); settings: S. cerevisiae tim10-1 ts strain growth, BacTiter-Glo, 24 h; at 20 µM
About 7,300 (2.2%) of roughly 330,000 compounds were called active.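 How the source made its calls: active means inhibition of at least 40%; inactive means the rest.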 What follows is part of a selection rich in actives, with near analogues and random picks from the rest.
Outcome codes: T (active), F (inactive)

| compound | assigned-category |
| --- | --- |
| Cc1ccc(-c2csc(NC(=O)C3=COCCO3)n2)cc1C | T |
| Cn1c2ccccc2c2c(C(=O)N3CCN(c4ccc(F)cc4)CC3)cn(C3CCCC3)c(=O)c21 | F |
| CNC(C)C#Cc1ccc2sc3cc(OC)c(OC)cc3c(=O)c2c1 (stereo unspecified) | T |
| COc1cc(N=Cc2c(O)[nH]c3ccccc23)cc(OC)c1OC | T |
| Cn1c2ccccc2c(=O)c2c(O)cccc21 | F |
| Cc1ccc(C(=O)N/C(=C/c2cccs2)C(=O)N2CCCCC2)cc1 | F |

###

test: growth inhibitors of tim10-1 mutant yeast, primary screen, luminescence, uHTS (AID 463190);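 note: mutant grown at 25 °C; 0% = DMSO wells with yeast and 100% = wells holding no yeast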; details: S. cerevisiae tim10-1 ts strain growth, BacTiter-Glo, 24 h; at 20 µM
Among all 330,000 compounds or so, about 7,300 (2.2%) were called active.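 How the source made its calls: active means inhibition of at least 40%; inactive means the rest.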 The entries come from a sample that favours actives as a whole.
Outcome codes: true (1) = active, false (0) = inactive

| compound | assigned-category |
| --- | --- |
| CC(C)(C)OC(=O)C1=C(CO)CS[C@@H]2[C@H](NC(=O)Cc3ccccc3)C(=O)N12 | false (0) |
| CCOC(=O)C1CCN(C(=O)COc2cccc3ccccc23)CC1 | false (0) |
| Cc1ccc(-c2cn3cc(C)ccc3n2)cc1 | true (1) |
| CCOC(=O)c1ccc(NNC(C)=O)c([N+](=O)[O-])c1 | false (0) |
| Cc1ccc(S(=O)(=O)N(CC(O)CN2CCCCC2)c2cccc([N+](=O)[O-])c2)cc1 (configuration not stated) | false (0) |
| COc1ccc(C(=O)NC2(C(F)(F)F)NC(=O)N(CCCc3ccccc3)C2=O)c(OC)c1OC (configuration not stated) | false (0) |
| Cc1occc1-c1nnc(SCC(=O)NC2(C#N)CCCC2)n1C | false (0) |
| O=C(CSC(=S)N1CCCCC1)c1c(F)cccc1F | false (0) |
| COc1ccc(N2CCN(C(=O)c3ccc4c(Cl)c5c(nc4c3)CCCC5)CC2)cc1 | false (0) |
| O=C1NC[C@@H](c2ccccc2)OC(=O)[C@H](Cc2ccc(F)cc2)CC/C=C/C[C@H]1CC(=O)N(CCO)Cc1ccccc1 | false (0) |
| COC(=O)c1c(-c2cccs2)csc1NC(=O)CSc1ncnc2sc(C)c(C)c12 | false (0) |
| COc1cccc2c1OCC1COc3c(c(=O)n(C)c(=O)n3C)C21 (configuration not stated) | false (0) |
| O=C1CSC2=NCN(c3ccccc3)CN12 | false (0) |
| CCCCOC(=O)CCCc1ccc([N+](=O)[O-])cc1[N+](=O)[O-] | false (0) |
| O=C(Cc1ccccc1)NC(=S)Nc1ccc(N2CCCCC2)cc1 | false (0) |
| Cc1ccc(-c2cn3cc([N+](=O)[O-])ccc3n2)cc1 | false (0) |
| Cc1sc2ncnc(SCC(=O)Nc3ccc(CN4CCCC4)cc3)c2c1C | true (1) |
| O=C1C=CC(=O)N1c1ccc(N2CCCCC2)cc1 | true (1) |
| O=C(Cc1ccccc1)Nc1c(C(=O)N2CCCCCC2)cnn1-c1ccccc1 | false (0) |
| C=CCn1c(SCC(=O)Nc2ccc(NC(C)=O)cc2)nc2sc(C)c(C)c2c1=O | false (0) |
| CC(=O)Nc1ccc(S(=O)(=O)Nc2ccc(N3CCCCC3)cc2)cc1 | false (0) |
| O=C(C1CCC(=O)N(C2CC2)C1)N1CCN(c2ccc(Cl)cc2)CC1 (configuration not stated) | false (0) |

###

assay: growth inhibitors of tim10-1 mutant yeast, primary screen, luminescence, uHTS (AID 463190);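 note: mutant grown at 25 °C; 0% = DMSO wells with yeast and 100% = wells holding no yeast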; details: S. cerevisiae tim10-1 ts strain growth, BacTiter-Glo, 24 h; at 20 µM; hits give high values
About 7,300 (2.2%) of roughly 330,000 compounds were called active. This excerpt belongs to a sample that is enriched for actives.
property: inhibition (%)

| compound | unit-string | endpoint-result |
| --- | --- | --- |
| COc1ccc(CCNC(=O)C2CCCN(S(=O)(=O)c3ccc(OC)cc3)C2)cc1 (stereo unspecified) | % | 1.05 |
| CN1CCc2c(sc3c2c(NCc2ccco2)nc2nnnn23)C1 | % | 21.9 |
| Cc1ccc(Cl)c(NC(=O)CN2CCN(C=O)CC2)c1 | % | -10.1 |
| Cc1nonc1C1CCCN1C(=O)c1cc(COc2cccc(C(F)(F)F)c2)on1 (stereo unspecified) | % | 46.1 |
| Clc1ccccc1CSc1nnc(-c2ccco2)c(-c2ccco2)n1 | % | 41.7 |
| COc1cccc(NC(=S)N(CCc2c(C)[nH]c3ccccc23)Cc2ccco2)c1 | % | 32.4 |
| S=C(NCc1ccco1)NCc1ccccc1Cl | % | 28.9 |
| C[n+]1ccccc1C1CCCC/C1=N\Nc1ccc([N+](=O)[O-])cc1[N+](=O)[O-] (stereo unspecified) | % | 28 |
| O=C(Nc1ccccc1)O/N=C1\CCCCC1c1ccc([N+](=O)[O-])cc1[N+](=O)[O-] (stereo unspecified) | % | 24.7 |
| Cc1ccnc(SCCn2c(N(C)Cc3ccccc3)nc3c2c(=O)n(C)c(=O)n3C)n1 | % | 30 |
| O=[N+]([O-])c1ccc(N/N=C2/CCCCC2c2ccccn2)c([N+](=O)[O-])c1 (stereo unspecified) | % | 42 |
| O=C(c1cc(COc2cccc(C(F)(F)F)c2)on1)N1CCSCC1 | % | 26.2 |
| COc1ccc(C(=O)Nc2sc(C)c(C)c2CN2CCOCC2)cc1 | % | 34.2 |
| CCc1cc(C(=O)c2ccc(OC)cc2)c(NC(=O)CN2CCN(C)CC2)s1 | % | 17.7 |
| CCc1nc2nc(C)c(NS(=O)(=O)c3ccc4c(c3)CCCC4)c(=O)n2[nH]1 | % | -10.4 |
| CCc1cc(C(N)=O)c(NC(=O)c2ccc(OC)cc2)s1 | % | 45.5 |
| O=C(Nc1cccc(Cl)c1)C1CCCN(c2cnccn2)C1 (stereo unspecified) | % | -8.48 |
| Cc1ccc(C(=O)NCC(=O)OCC(=O)Nc2cccc(S(=O)(=O)N3CCCC3)c2)cc1C | % | -7 |
| CCC(C)(C)NC(=O)C(c1ccc(OC)cc1)N(C(=O)CCC(=O)Nc1cc(C)on1)c1ccc(OC)cc1OC (stereo unspecified) | % | 6.97 |
| Cn1sc(=O)c2cc(S(=O)(=O)NC3CC3)ccc21 | % | 22.8 |
| O=C(CC1N=C2c3ccccc3N=C(SCc3ccccc3Cl)N2C1=O)NCc1ccco1 (stereo unspecified) | % | 24.8 |

###

assay: growth inhibitors of tim10-1 mutant yeast, primary screen, luminescence, uHTS (AID 463190);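 note: mutant grown at 25 °C; 0% = DMSO wells with yeast and 100% = wells holding no yeast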; conditions: S. cerevisiae tim10-1 ts strain growth, BacTiter-Glo, 24 h; at 20 µM
The campaign covered roughly 330,000 compounds. About 7,300 (2.2%) were called active.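 The calls were made as follows: active = inhibition of at least 40%; inactive = the rest.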 The sample as a whole holds a higher share of actives than the screen did.
Outcome codes: 1 for active, 0 for inactive

| molecule | assigned-category |
| --- | --- |
| COc1ccc(S(=O)(=O)NCc2cccnc2)cc1NC(=O)c1ccc(C)cc1 | 0 |
| CCOC(=O)CSc1nc2c(c(=O)n(C)c(=O)n2C)n1Cc1ccccc1F | 0 |
| CCOC(=O)CSc1nc2c(c(=O)n(Cc3ccccc3Cl)c(=O)n2C)n1C | 1 |
| COc1ccc(C(=O)CN2C(=O)NC3(CCc4ccccc43)C2=O)c(OC)c1 (stereo not given) | 0 |
| O=C(CC1(O)C(=O)N(CN2CCOCC2)c2ccccc21)c1ccccc1 (stereo not given) | 0 |

Origin of measurements: PubChem BioAssay AID463190
